- Test system: CAMK2A
- applied_conditions: concentration: 1 μM, replicates: in singlicate; n = 1;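 further: KINOMEscan kinase panel screen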
quantity: %Inh

Given item COC(=O)c1cccc(NC(=O)NCCNc2ccnc(Nc3ccc(F)cc3)n2)c1 [GSK1379883] , the value recorded as its %Inh is 0%

Given item FC(F)(F)c1cc(Nc2nccc(-c3c(-c4ccc(Cl)cc4)nn4ncccc34)n2)ccc1Cl [GW829351] , the value recorded as its %Inh is 30%

Given item Cl.Cl.c1ccc(-c2cc3ccncc3cc2OC2CCNCC2)cc1 [GSK1122999] , the value recorded as its %Inh is 0%

Given item Nc1nc(-c2ccc3c(N)n[nH]c3c2)cc(N2CCC[C@@H](C(=O)Nc3ccccc3)C2)n1.O=C(O)C(F)(F)F.O=C(O)C(F)(F)F [GSK2288359] , the value recorded as its %Inh is 0%

Given item Fc1cccc(COc2ccc(Nc3ncnc4nn5ccccc5c34)cc2Cl)c1 [GW689066] , the value recorded as its %Inh is 0%

###

- Test system: PIM3
- applied_conditions: concentration: 1 μM, replicates: in singlicate; n = 1
quantity: %Inh (%)
Kindly provide the numeric value in % only, without the unit symbol.

Query FC(F)(F)c1ccc(-c2nn3ncccc3c2-c2ccnc(Nc3cccc(C(F)(F)F)c3)n2)cc1 [GW828205] on PIM3; %Inh returned: 32

Query Cl.Fc1ccccc1COc1ccc(Nc2ncnc3ccc(-c4nnc(C(F)(F)F)o4)cc23)cc1Cl [GW424170] on PIM3; %Inh returned: 0

Query FC(F)(F)c1cc(Nc2nccc(-c3c(-c4ccc(Cl)cc4)nn4ncccc34)n2)ccc1Cl [GW829351] on PIM3; %Inh returned: 0

Query Cn1ccc2ncnc(Nc3ccc(Oc4cccc(Cl)c4)c(Cl)c3)c21 on PIM3; %Inh returned: 22

Query Nc1n[nH]c2nnc(-c3ccccc3)cc12 [SB-517389] on PIM3; %Inh returned: 0

Query CC(C)(C)OC(=O)NC1CCCN(c2cc(-c3ccc4c(N)n[nH]c4c3)nc(N)n2)C1 (stereo not shown) [GSK2286096] on PIM3; %Inh returned: 5

Query C[C@@H]1CCN(C(=O)CO)C[C@@H]1N(C)c1ncnc2[nH]ccc12 on PIM3; %Inh returned: 0

###

I'd be grateful if you could share measured %Inh for these entries.
- Test system: PAK2
- applied_conditions: concentration: 1 μM, replicates: in singlicate; n = 1
Kindly provide the numeric value in % only, without the unit symbol.

Given item COc1ccc(NC(=O)c2ccc(-c3cc(-c4nnc(C)o4)ccc3C)cc2)cc1 [GW595885] , the value recorded as its %Inh is 0

Given item Cl.Cn1ccc(-c2cccc(Nc3ccnc4cc(-c5nccs5)ccc34)c2)n1 [GW525701] , the value recorded as its %Inh is 0

Given item Fc1cccc(COc2ccc(Nc3ncnc4sc(-c5ccc[nH]5)cc34)cc2Cl)c1 [GW707818] , the value recorded as its %Inh is 5

Given item COc1cc2c(Nc3cccc(NC(=O)c4ccccc4)c3)ncnc2cc1OCCCN1CCOCC1 [GSK223810] , the value recorded as its %Inh is 0

Given item CNc1nccc(-c2c(-c3ccc(F)cc3)ncn2C2CCN(C)CC2)n1 [SB-222903] , the value recorded as its %Inh is 13

Given item Clc1ccc(-c2cc(-c3c[nH]nc3-c3ccccn3)ccn2)cc1 [GW681251] , the value recorded as its %Inh is 0

###

- Tested on: MEK4
- Construct: gene MAP2K4
- applied_conditions: concentration: 1 μM, replicates: in singlicate; n = 1
Under this convention, 1 denotes %Inh strictly below 7% and 0 denotes %Inh at or above 7%.

Exercise: is_below(%Inh, 7%) for Clc1ccc(-c2cc(-c3c[nH]nc3-c3ccccn3)ccn2)cc1 ?
Solution: 1

Exercise: is_below(%Inh, 7%) for Clc1cc(Nc2ncnc3cc[nH]c23)ccc1OCc1ccccn1 ?
Solution: 0

Exercise: is_below(%Inh, 7%) for CSc1ccc(NC2=C(c3ccccc3Cl)C(=O)NC2=O)cc1 ?
Solution: 1

Exercise: is_below(%Inh, 7%) for CCCc1ccc(S(=O)(=O)NC2CCN(c3ccnc(Nc4ccc(OC)cc4)n3)C2)cc1 (centres unmarked) ?
Solution: 0

Exercise: is_below(%Inh, 7%) for c1ccc(-c2ccc3c(-c4ccnc(Nc5ccc6c(c5)OCCO6)n4)cnn3n2)cc1 ?
Solution: 0

Exercise: is_below(%Inh, 7%) for CS(=O)(=O)CCNCc1nc(-c2ccc3ncnc(Nc4ccc(OCc5cccc(F)c5)c(Cl)c4)c3c2)cs1.Cl ?
Solution: 1

Exercise: is_below(%Inh, 7%) for Nc1nc(-c2ccc3c(N)n[nH]c3c2)cc(N2CCC[C@@H](C(=O)Nc3ccccc3)C2)n1.O=C(O)C(F)(F)F.O=C(O)C(F)(F)F ?
Solution: 1

Exercise: is_below(%Inh, 7%) for Cl.Cn1ccc(-c2cccc(Nc3ccnc4cc(-c5nccs5)ccc34)c2)n1 ?
Solution: 0

Exercise: is_below(%Inh, 7%) for NC(=O)c1sc(-n2cnc3ccccc32)cc1OCc1ccccc1F ?
Solution: 0

###

- Tested on: NEK1
- applied_conditions: concentration: 1 μM, replicates: in singlicate; n = 1
quantity: %Inh (%)
Kindly provide the numeric value in % only, without the unit symbol.

Query CSc1nn2c(=O)cc(N3CCOCC3)nc2n1Cc1cccc(Cl)c1Cl [GSK2347225] on NEK1; %Inh returned: 0

Query Cl.O=S(=O)(c1cccc(F)c1)c1ccc(Nc2ncnc3cc(Br)sc23)cc1Cl [GSK306886] on NEK1; %Inh returned: 32

Query Cc1cccc(-c2nc(Nc3ccc4[nH]nnc4c3)c3ccccc3n2)n1 [GW867587] on NEK1; %Inh returned: 0

Query Nc1nc(-c2cccnc2)c(-c2ccnc3ccccc23)s1 [GW684083] on NEK1; %Inh returned: 0

Query C[C@H]1CC[C@@H](C(=O)Nc2ccccc2)CN1c1cc(-c2ccc3c(N)n[nH]c3c2)nc(N)n1 [GSK2283293] on NEK1; %Inh returned: 0

Query O=C(Nc1n[nH]c2nc(-c3ccco3)c(Br)cc12)c1ccc(CN2CCCC2)cc1.O=C(O)[C@H](O)[C@@H](O)C(=O)O [SB-742352] on NEK1; %Inh returned: 0

Query FC(F)(F)c1cc(Nc2nccc(-c3c(-c4ccc(Cl)cc4)nn4ncccc34)n2)ccc1Cl [GW829351] on NEK1; %Inh returned: 0

Query Nc1nc(-c2ccc3c(N)n[nH]c3c2)cc(N2CCCCC2)n1 [GSK2228768] on NEK1; %Inh returned: 0

Query Oc1ccc2ncnc(Nc3ccc(OCc4ccccc4)cc3)c2c1 [GI262866] on NEK1; %Inh returned: 0

Query Cc1ccc(C)c(NC(=O)NCCNc2ccnc(Nc3ccc(F)cc3)n2)c1 [GSK1379878] on NEK1; %Inh returned: 0

Query c1ccc(-c2ccc3c(-c4ccnc(Nc5ccc6c(c5)OCCO6)n4)cnn3n2)cc1 [GW818941] on NEK1; %Inh returned: 0

Query CS(=O)(=O)CCNCc1nc(-c2ccc3ncnc(Nc4ccc(OCc5cccc(F)c5)c(Cl)c4)c3c2)cs1.Cl [GW583340] on NEK1; %Inh returned: 0

Query COc1ccc(NC(=O)c2ccc(-c3cc(-c4nnc(C)o4)ccc3C)cc2)cc1 [GW595885] on NEK1; %Inh returned: 0

Query CS(=O)(=O)CCNCc1ccc(-c2ccc3ncnc(Nc4ccc(OCc5ccccc5)c(Cl)c4)c3c2)o1.Cl [GW574783] on NEK1; %Inh returned: 0

Query COc1ccc(-c2nc3n(c2-c2ccncc2)CCC3)cc1 [SKF-104493] on NEK1; %Inh returned: 0

Query O=C(CCO)NCCn1ccc2ncnc(Nc3ccc(Oc4cccc(C(F)(F)F)c4)c(Cl)c3)c21 on NEK1; %Inh returned: 0

Query O=C(c1ccc(-c2cc(-c3c[nH]nc3-c3ccccn3)ccn2)cc1)N1CCCC1 [GW792479] on NEK1; %Inh returned: 0

Query FC(F)(F)c1ccc(-c2cc(-c3c[nH]nc3-c3ccccn3)ccn2)cc1 [GW599550] on NEK1; %Inh returned: 9

Query COc1ccc(NC(=O)Nc2ccc(C)c(-c3ccc(C(=O)Nc4ccncc4)cc3)c2)cc1 [GSK1398475] on NEK1; %Inh returned: 0

###

- Test system: CDC2L1
- Construct: gene CDK11B
- applied_conditions: concentration: 1 μM, replicates: in singlicate; n = 1
quantity: %Inh

Given item Cn1ccc2ncnc(Oc3ccc(NC(=O)Nc4cccnc4)c(Cl)c3)c21 , the value recorded as its %Inh is 9%

Given item CSc1nn2c(=O)cc(N3CCOCC3)nc2n1Cc1cccc(Cl)c1Cl [GSK2347225] , the value recorded as its %Inh is 0%

Given item Cn1ccc2ncnc(Nc3ccc(Oc4cccc(Cl)c4)c(Cl)c3)c21 , the value recorded as its %Inh is 22%

Given item COc1ccc(Nc2nccc(N3CCC(NC(=O)c4cccc(NC(C)=O)c4)C3)n2)cc1 (stereo not drawn) [GSK1379732] , the value recorded as its %Inh is 0%

Given item CCCc1ccc(S(=O)(=O)NC2CCN(c3ccnc(Nc4ccc(OC)cc4)n3)C2)cc1 (stereo not drawn) [GSK1379737] , the value recorded as its %Inh is 0%

Given item Fc1ccc(-c2ncn(CCCNCc3ccccc3)c2-c2ccncc2)cc1 , the value recorded as its %Inh is 0%

Given item Fc1cccc(COc2ccc(Nc3ncnc4sc(-c5ccc[nH]5)cc34)cc2Cl)c1 [GW707818] , the value recorded as its %Inh is 20%

Given item FC(F)(F)c1ccc(-c2cc(-c3c[nH]nc3-c3ccccn3)ccn2)cc1 [GW599550] , the value recorded as its %Inh is 0%

Given item Cc1cccc(-c2nc(Nc3ccc4[nH]nnc4c3)c3ccccc3n2)n1 [GW867587] , the value recorded as its %Inh is 0%

Given item COc1ccc(NC(=O)Nc2ccc(C)c(-c3ccc(C(=O)Nc4ccncc4)cc3)c2)cc1 [GSK1398475] , the value recorded as its %Inh is 0%

Given item FC(F)(F)c1ccc(-c2nn3ncccc3c2-c2ccnc(Nc3cccc(C(F)(F)F)c3)n2)cc1 [GW828205] , the value recorded as its %Inh is 0%

Given item COC(=O)c1cccc(NC(=O)NCCNc2ccnc(Nc3ccc(F)cc3)n2)c1 [GSK1379883] , the value recorded as its %Inh is 0%

Given item C[C@@H]1CCN(C(=O)CO)C[C@@H]1N(C)c1ncnc2[nH]ccc12 , the value recorded as its %Inh is 0%

Given item FC(F)(F)c1cc(Nc2nccc(-c3c(-c4ccc(Cl)cc4)nn4ncccc34)n2)ccc1Cl [GW829351] , the value recorded as its %Inh is 0%

Given item c1ccc(-c2ccc3c(-c4ccnc(Nc5ccc6c(c5)OCCO6)n4)cnn3n2)cc1 [GW818941] , the value recorded as its %Inh is 0%

Given item CCc1nc(-c2cccc(C)c2)c(-c2ccnc(NC(=O)c3ccccc3)c2)s1 , the value recorded as its %Inh is 11%

Given item Oc1ccc2ncnc(Nc3ccc(OCc4ccccc4)cc3)c2c1 [GI262866] , the value recorded as its %Inh is 0%

Given item Nc1nc(-c2ccc3c(N)n[nH]c3c2)cc(N2CCC[C@@H](C(=O)Nc3ccccc3)C2)n1.O=C(O)C(F)(F)F.O=C(O)C(F)(F)F [GSK2288359] , the value recorded as its %Inh is 0%

Given item Cl.c1ccc(Cn2ccc3cc(Nc4ncnc5ccccc45)ccc32)cc1 [GW275568] , the value recorded as its %Inh is 23%

Given item Nc1nc(-c2ccccn2)c(-c2ccnc3ccccc23)s1 [GW548057] , the value recorded as its %Inh is 0%

Given item Nc1n[nH]c2nnc(-c3ccccc3)cc12 [SB-517389] , the value recorded as its %Inh is 0%
